- tested_on: T1, monkey CD19 on HEK293T-monkey CD19 cells (monkey)
- T1 construct: whole, on cells
- procedure_summary: FACS on HEK293T-monkey CD19 cells
value_type: Maximum mean fluorescence intensity
Please state the value as a number alone, without comment.

Past entries and their recorded results:
1. F3.5.1 (antibody, human IgG1, V domains shown, human-murine chimeric antibody, human IgG1) VH: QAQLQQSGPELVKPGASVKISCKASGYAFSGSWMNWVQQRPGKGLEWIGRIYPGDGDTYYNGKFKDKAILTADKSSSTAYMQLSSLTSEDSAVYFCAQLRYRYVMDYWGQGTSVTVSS VL: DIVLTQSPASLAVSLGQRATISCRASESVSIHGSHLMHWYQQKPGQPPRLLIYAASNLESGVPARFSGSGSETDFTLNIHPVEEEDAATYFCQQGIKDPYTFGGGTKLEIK: 80000
2. F3.3.10 (antibody, human IgG1, V domains shown, human-murine chimeric antibody, human IgG1) VH: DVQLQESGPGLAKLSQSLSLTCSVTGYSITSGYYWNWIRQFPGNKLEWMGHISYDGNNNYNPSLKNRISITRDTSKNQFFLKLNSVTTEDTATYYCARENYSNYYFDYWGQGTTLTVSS VL: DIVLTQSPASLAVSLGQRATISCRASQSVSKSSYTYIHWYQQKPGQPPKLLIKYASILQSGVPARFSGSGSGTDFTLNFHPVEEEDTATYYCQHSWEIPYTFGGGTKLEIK: 173000

Sample F4.276.12 (antibody, human IgG1, V domains shown, human-murine chimeric antibody, human IgG1) VH: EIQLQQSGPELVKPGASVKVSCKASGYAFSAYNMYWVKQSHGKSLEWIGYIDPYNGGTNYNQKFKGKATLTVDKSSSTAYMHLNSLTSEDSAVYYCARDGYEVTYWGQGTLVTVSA VL: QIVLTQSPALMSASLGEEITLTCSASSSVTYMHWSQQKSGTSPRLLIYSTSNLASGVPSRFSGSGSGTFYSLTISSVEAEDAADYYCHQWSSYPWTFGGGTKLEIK ; Maximum mean fluorescence intensity observed: 597

Sample F6.5.20 (antibody, human IgG1, V domains shown, human-murine chimeric antibody, human IgG1) VH: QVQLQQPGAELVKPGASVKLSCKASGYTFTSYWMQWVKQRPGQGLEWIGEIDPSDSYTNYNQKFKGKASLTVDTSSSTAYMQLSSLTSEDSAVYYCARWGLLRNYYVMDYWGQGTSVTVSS VL: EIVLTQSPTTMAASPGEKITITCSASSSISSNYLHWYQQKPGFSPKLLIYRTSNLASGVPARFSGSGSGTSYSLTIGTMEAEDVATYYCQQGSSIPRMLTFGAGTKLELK ; Maximum mean fluorescence intensity observed: 531

Sample F4.49.11 (antibody, human IgG1, V domains shown, human-murine chimeric antibody, human IgG1) VH: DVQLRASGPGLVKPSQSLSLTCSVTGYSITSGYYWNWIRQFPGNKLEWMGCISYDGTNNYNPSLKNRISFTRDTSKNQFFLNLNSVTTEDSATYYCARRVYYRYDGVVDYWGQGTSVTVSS VL: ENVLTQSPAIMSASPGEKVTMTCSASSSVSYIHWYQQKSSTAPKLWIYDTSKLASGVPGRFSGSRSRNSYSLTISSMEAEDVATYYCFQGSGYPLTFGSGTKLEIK ; Maximum mean fluorescence intensity observed: 73500
